target: KRAS G12D (Homo sapiens, UniProt P01116, G12D); assay: KRAS G12D Probe Displacement Assay (TR-FRET, GDP-loaded); assay type: binding; conditions: KRAS G12D, read-out: KRAS^G12D Probe Displacement Assay IC50
Sequence (P01116 1-188 isoform P01116-2 G12D): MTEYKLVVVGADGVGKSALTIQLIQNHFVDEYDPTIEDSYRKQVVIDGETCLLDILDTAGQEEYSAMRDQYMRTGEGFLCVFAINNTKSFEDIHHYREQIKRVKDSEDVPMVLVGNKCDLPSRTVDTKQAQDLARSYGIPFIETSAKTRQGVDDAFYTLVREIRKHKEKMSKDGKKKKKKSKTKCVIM
pIC50: −log10 of the molar value.
experimental.readout: pIC50

- Cc1cc(N)cc(-c2nc3c4c(nc(OCC5(CN6CCC7(COC7)C6)CC5)nc4c2F)N2C[C@H]4CC[C@H](N4)[C@H]2CCO3)c1C(F)(F)F: > 9.52
- Cc1cc(N)cc(-c2nc3c4c(nc(OC[C@]56C[C@H](F)CN5C[C@H](F)C6)nc4c2F)N2C[C@H]4CC[C@H](N4)[C@H]2CCO3)c1C(F)(F)F: 8.52 to 9.52
- Cc1cc(N)cc(-c2nc3c4c(nc(O[C@@H]5COCC[C@H]5N(C)C)nc4c2F)N2C[C@H]4CC[C@H](N4)[C@H]2CCO3)c1C(F)(F)F: 6.00 to 8.52
- [2H]C([2H])([2H])N1CCC(C(F)F)C(C)(C([2H])([2H])Oc2nc3c4c(nc(-c5cc(N)cc(Cl)c5C(F)(F)F)c(F)c4n2)OCC[C@@H]2[C@@H]4CC[C@H](CN32)N4)C1 (single isomer, unassigned) [Example 246]: 8.52 to 9.52
- Cc1cc(N)cc(-c2nc3c4c(nc(O[C@H]5COC[C@H]5N(C)C)nc4c2F)N2C[C@H]4CC[C@H](N4)[C@H]2CCO3)c1C(F)(F)F: 6.00 to 8.52
- CN(C)C[C@]1(COc2nc3c4c(nc(-c5cc(N)cc(Cl)c5C(F)(F)F)c(F)c4n2)OCC[C@@H]2[C@@H]4CC[C@H](CN32)N4)CC1(F)F: > 9.52
- Nc1cc(Cl)c(C(F)(F)F)c(-c2nc3c4c(nc(OCC5(CN6CCC(=CF)CC6)CC5)nc4c2F)N2C[C@H]4CC[C@H](N4)[C@H]2CCO3)c1: > 9.52
- Cc1cc(N)cc(-c2nc3c4c(nc(OCC5(C)CN(C)CCC5C(F)F)nc4c2F)N2C[C@H]4CC[C@H](N4)[C@H]2CCO3)c1C(F)(F)F (single isomer, unassigned) [Example 244]: 8.52 to 9.52
- Cc1cc(N)cc(-c2nc3c4c(nc(OCC5(CN6[C@@H]7CC[C@H]6CC(F)(F)C7)CC5)nc4c2F)N2C[C@H]4CC[C@H](N4)[C@H]2CCO3)c1C(F)(F)F: > 9.52
- Cc1cc(N)cc(-c2nc3c4c(nc(O[C@H]5C[C@@H]6C[C@H]5CN(C)C6)nc4c2F)N2C[C@H]4CC[C@H](N4)[C@H]2CCO3)c1C(F)(F)F: > 9.52
- Cc1cc(N)cc(-c2nc3c4c(nc(OCC5(CN6CCC(C)(O)C6)CC5)nc4c2F)N2C[C@H]4CC[C@H](N4)[C@H]2CCO3)c1C(F)(F)F (stereo partly drawn): > 9.52
- Cc1cc(N)cc(-c2nc3c4c(nc(OCC5(CN6CC=C(F)CC6)CC5)nc4c2F)N2C[C@H]4CC[C@H](N4)[C@H]2CCO3)c1C(F)(F)F: > 9.52
- Cc1cc(N)cc(-c2nc3c4c(nc(OCC5(CN6C[C@H](O)[C@@H](F)C6)CC5)nc4c2F)N2C[C@H]4CC[C@H](N4)[C@H]2CCO3)c1C(F)(F)F (stereo in doubt): > 9.52
- Cc1cc(N)cc(-c2nc3c4c(nc(OCC5(CN6C[C@@H]7[C@@H](CF)[C@@H]7C6)CC5)nc4c2F)N2C[C@H]4CC[C@H](N4)[C@H]2CCO3)c1C(F)(F)F: > 9.52
- Cc1cc(N)cc(-c2nc3c4c(nc(OCC5(CN6CCCOCC6)CC5)nc4c2F)N2C[C@H]4CC[C@H](N4)[C@H]2CCO3)c1C(F)(F)F: > 9.52
- COC[C@@H]1[C@H]2C[C@H]2CN1CC1(COc2nc3c4c(nc(-c5cc(N)cc(C)c5C(F)(F)F)c(F)c4n2)OCC[C@@H]2[C@@H]4CC[C@H](CN32)N4)CC1: > 9.52
- CO[C@@H]1CN2C[C@H](F)C[C@]2(COc2nc3c4c(nc(-c5cc(N)cc(C)c5C(F)(F)F)c(F)c4n2)OCC[C@@H]2[C@@H]4CC[C@H](CN32)N4)C1: > 9.52
- Cc1cc(N)cc(-c2nc3c4c(nc(OCC56CCCN5CC(F)(F)C6)nc4c2F)N2C[C@H]4CC[C@H](N4)[C@H]2CCO3)c1C(F)(F)F (stereo partly drawn): 8.52 to 9.52
- Cc1cc(N)cc(-c2nc3c4c(nc(O[C@H]5COCC[C@H]5N(C)C)nc4c2F)N2C[C@H]4CC[C@H](N4)[C@H]2CCO3)c1C(F)(F)F: 6.00 to 8.52
- Cc1cc(N)cc(-c2nc3c4c(nc(OCC5(CN6CCC7(CC6)COC7)CC5)nc4c2F)N2C[C@H]4CC[C@H](N4)[C@H]2CCO3)c1C(F)(F)F: > 9.52
- Cc1cc(N)cc(-c2nc3c4c(nc(OC[C@@]5(C)CCCN(C6COC6)C5)nc4c2F)N2C[C@H]4CC[C@H](N4)[C@H]2CCO3)c1C(F)(F)F: > 9.52
